SYSTEM UNDER TEST: Toll-like receptor 4 (Homo sapiens, UniProt O00206)
Sequence (O00206 whole entry): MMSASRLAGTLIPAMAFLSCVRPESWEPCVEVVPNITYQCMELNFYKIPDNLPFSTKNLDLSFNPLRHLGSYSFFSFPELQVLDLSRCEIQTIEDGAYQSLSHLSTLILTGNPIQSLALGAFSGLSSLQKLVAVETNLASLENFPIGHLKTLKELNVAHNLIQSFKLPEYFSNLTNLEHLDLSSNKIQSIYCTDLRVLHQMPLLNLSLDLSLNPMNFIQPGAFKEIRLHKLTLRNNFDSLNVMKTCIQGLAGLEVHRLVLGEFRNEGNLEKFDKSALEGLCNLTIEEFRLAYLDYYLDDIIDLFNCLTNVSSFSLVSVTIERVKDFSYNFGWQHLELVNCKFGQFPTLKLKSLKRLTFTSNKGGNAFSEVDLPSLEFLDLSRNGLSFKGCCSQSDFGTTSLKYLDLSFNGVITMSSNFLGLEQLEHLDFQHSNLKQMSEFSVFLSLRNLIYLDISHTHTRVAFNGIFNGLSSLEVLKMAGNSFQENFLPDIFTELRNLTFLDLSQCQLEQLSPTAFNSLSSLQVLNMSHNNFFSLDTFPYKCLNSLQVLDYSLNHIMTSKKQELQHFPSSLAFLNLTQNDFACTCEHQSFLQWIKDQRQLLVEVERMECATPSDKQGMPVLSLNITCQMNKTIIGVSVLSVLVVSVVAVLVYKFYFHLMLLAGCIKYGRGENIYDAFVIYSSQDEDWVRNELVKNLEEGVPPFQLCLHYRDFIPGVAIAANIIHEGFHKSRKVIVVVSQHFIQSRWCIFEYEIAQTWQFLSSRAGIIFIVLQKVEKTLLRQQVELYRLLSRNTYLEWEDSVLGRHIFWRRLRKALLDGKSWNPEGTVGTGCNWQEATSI
PROTOCOL: Antagonist activity at […] stimulated human TRL4 overexpressed in HEK293 cells assessed as inhibition of NF kappa B/Ap-1 activation preincubated with compound for 30 mins followed by […] stimulation measured after 22 hrs by SEAP reporter assay
MEASURED PARAMETER: IC50

Quote Toll-like receptor 4 (Homo sapiens, UniProt O00206) IC50 for entry `Cc1cc(-c2[nH]c3ccc(C4CCNCC4)cc3c2C(C)C)cc(C)n1` .
> 10 µM

----------
SYSTEM UNDER TEST: Toll-like receptor 8 (Homo sapiens, UniProt Q9NR97)
Sequence (Q9NR97 whole entry): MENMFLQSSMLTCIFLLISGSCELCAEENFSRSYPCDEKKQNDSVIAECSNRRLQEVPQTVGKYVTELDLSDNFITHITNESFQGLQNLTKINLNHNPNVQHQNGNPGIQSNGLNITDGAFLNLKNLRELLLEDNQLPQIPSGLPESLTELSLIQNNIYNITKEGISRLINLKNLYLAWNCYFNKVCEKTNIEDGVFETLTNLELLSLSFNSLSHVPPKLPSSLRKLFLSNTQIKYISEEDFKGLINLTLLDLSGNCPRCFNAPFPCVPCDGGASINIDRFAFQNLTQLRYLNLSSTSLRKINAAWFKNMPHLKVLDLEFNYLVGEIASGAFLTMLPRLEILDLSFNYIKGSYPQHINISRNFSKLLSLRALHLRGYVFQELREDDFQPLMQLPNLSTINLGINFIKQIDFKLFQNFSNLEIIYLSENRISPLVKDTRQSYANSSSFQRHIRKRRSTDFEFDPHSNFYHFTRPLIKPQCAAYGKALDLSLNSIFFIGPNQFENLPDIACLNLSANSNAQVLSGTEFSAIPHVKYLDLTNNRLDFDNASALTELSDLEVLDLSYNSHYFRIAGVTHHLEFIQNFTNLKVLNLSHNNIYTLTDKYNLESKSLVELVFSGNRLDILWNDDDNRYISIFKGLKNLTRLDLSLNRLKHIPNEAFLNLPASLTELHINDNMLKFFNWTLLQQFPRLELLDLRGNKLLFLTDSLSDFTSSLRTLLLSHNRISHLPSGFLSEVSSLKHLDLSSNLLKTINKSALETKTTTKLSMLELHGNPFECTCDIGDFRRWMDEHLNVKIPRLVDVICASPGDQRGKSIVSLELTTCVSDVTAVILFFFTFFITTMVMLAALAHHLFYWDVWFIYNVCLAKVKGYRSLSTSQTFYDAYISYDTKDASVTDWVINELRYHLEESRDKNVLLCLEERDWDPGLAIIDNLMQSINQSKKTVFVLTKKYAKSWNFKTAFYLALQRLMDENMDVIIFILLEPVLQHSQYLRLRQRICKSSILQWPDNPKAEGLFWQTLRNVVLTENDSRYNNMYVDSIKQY
PROTOCOL: Antagonist activity at R848 stimulated human TRL8 overexpressed in HEK293 cells assessed as inhibition of NF kappa B/Ap-1 activation preincubated with compound for 30 mins followed by R848 stimulation measured after 22 hrs by SEAP reporter assay
Assay type: cell-based
MEASURED PARAMETER: pIC50
Quick note: pIC50 means taking -log10 of the concentration in moles per liter.

Given `Cc1cc(-c2[nH]c3cc(C(F)(F)F)c(C4CCNCC4)cc3c2C(C)C)ccn1` , respond with its pIC50.
6.38
